This listing pairs compounds with measured %Inh.
tested on: PCTK2; construct: gene CDK17; details: concentration: 1 μM,replicates: in singlicate; n = 1;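 further: KINOMEscan kinase panel screen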
Form entry: value (%) — number only.

Example compounds with recorded %Inh:
{"columns": ["chemical.string", "unit.info", "%Inh"],
 "data": [
  ["C=CC(=O)Nc1cc2c(Nc3ccc(F)c(Cl)c3)ncnc2cc1OCCCN1CCOCC1", "%", 0],
  ["Cc1n[nH]c2ccc(-c3cc(OC[C@@H](N)Cc4ccccc4)cnc3-c3ccoc3)cc12.O=C(O)C(F)(F)F.O=C(O)C(F)(F)F", "%", 0],
  ["Cl.Cl.NC[C@H](CC1CCCCC1)NC(=O)c1cc(Br)c(-c2ccnc3[nH]ccc23)s1", "%", 0]
]}

Lookup: Would you kindly share the measured %Inh for CN(C)CCOc1ccc(-c2cc(-c3c[nH]nc3-c3ccccn3)ccn2)cc1 ?
Found: 7

----------
Parameter %Inh: see the listing below.
test system: PCTK3; construct: gene CDK18; details: concentration: 1 μM,replicates: in singlicate; n = 1
Answer with a number only, understood to be in %.

{"columns": ["molecule", "unit.info", "%Inh"],
 "data": [
  ["C[C@H]1Oc2cc(cnc2N)-c2c(nn(C)c2C#N)CN(C)C(=O)c2ccc(F)cc21", "%", 29],
  ["CNC(=O)c1ccccc1Sc1ccc2c(/C=C/c3ccccn3)n[nH]c2c1", "%", 8],
  ["Cc1n[nH]c2ccc(-c3cc(OC[C@@H](N)Cc4ccccc4)cnc3-c3ccoc3)cc12.O=C(O)C(F)(F)F.O=C(O)C(F)(F)F", "%", 0],
  ["Nc1nc(Nc2ccccc2)cc(-c2ccc3c(N)n[nH]c3c2)n1", "%", 0],
  ["CN(C)CC(O)COc1ccc(Nc2nccc(-c3cnn4nc(N5CCOCC5)ccc34)n2)cc1 (centres unmarked)", "%", 52]
]}

Lookup: Data request, read-out %Inh, for Cl.Cl.NC[C@H](Cc1ccc(C(F)(F)F)cc1)NC(=O)c1cc(Br)c(-c2ccnc3[nH]ccc23)s1
Found: 0

Lookup: What does the data say about its %Inh? Entry: Cc1ccc2c(-c3ccncc3)c(-c3ccc(F)cc3)nn2c1.Cl
Found: 11

Lookup: GET /values?readout=%Inh&item= CCN(CC)CCCCNc1ncc2cc(-c3c(Cl)cccc3Cl)c(NC(=O)NC(C)(C)C)nc2n1
Found: 0

Lookup: For the molecule shown here, Cc1ccc(-n2nc(C(C)(C)C)cc2NC(=O)Nc2ccc(OCCN3CCOCC3)c3ccccc23)cc1 , give the reported %Inh.
Found: 2

Lookup: So what does the record say about %Inh for O=C(NCCCN1CCOC1=O)c1cnc(NCc2cc(Cl)ccc2Cl)nc1NC1CCCC1 ?
Found: 13

Lookup: Fill in the blank: the reported %Inh of C[C@@H](Oc1cc(-c2cnn(C3CCNCC3)c2)cnc1N)c1c(Cl)ccc(F)c1Cl is ____.
Found: 6

----------
system: ULK2; conditions: concentration: 1 μM,replicates: in singlicate; n = 1
Rule: %Inh under 20% gives not satisfied, otherwise satisfied.

{"columns": ["compound", "assay.system", "group.label"],
 "data": [
  ["CN(C)CC(O)COc1ccc(Nc2nccc(-c3cnn4nc(N5CCOCC5)ccc34)n2)cc1 (centres unmarked) [GW767488]", "ULK2", "satisfied"]
]}

Lookup: Does the reported %Inh for C=CC(=O)Nc1cc2c(Nc3ccc(F)c(Cl)c3)ncnc2cc1OCCCN1CCOCC1 [GW781483] fall at or above the 20% mark?
Found: not satisfied

Lookup: Quick check: does Cl.Cl.NC[C@H](CC1CCCCC1)NC(=O)c1cc(Br)c(-c2ccnc3[nH]ccc23)s1 [GSK1581427] have %Inh greater than or equal to 20%?
Found: not satisfied
